# Tested on: poliovirus Sabin strains 1, 2, and 3
# assay protocol: microbe, parasite or virus in culture
# Format: cell-based
# reported conditions: Enterovirus C, HeLa, read-out: EC50
pEC50: −log10 of the molar value.

molecule: CCOC(=O)c1ccc(OCCC2CCN(c3ccc(C)nn3)CC2)cc1 [Pirodavir (R77975)]
measured target: poliovirus Sabin strains 1, 2, and 3
pEC50: > 5.70
--
molecule: CCOC(=O)c1ccc(OCCCC2CCN(c3ccc(C)nn3)CC2)cc1 [Pirodavir analog (R78206)]
measured target: poliovirus Sabin strains 1, 2, and 3
pEC50: > 5.70
--
molecule: Cc1cc(CCCOc2c(C)cc(-c3noc(C(F)(F)F)n3)cc2C)on1 [Pleconaril]
measured target: poliovirus Sabin strains 1, 2, and 3
pEC50: > 5.70

---

# Tested on: poliovirus Sabin strain 1 (PV1)
# assay protocol: microbe, parasite or virus in culture
# Format: cell-based
# reported conditions: Enterovirus C, HeLa, 72 h, read-out: EC50 PV1
This listing pairs molecules with measured EC50.

molecule: N#Cc1cc([N+](=O)[O-])ccc1Oc1ccc(Cl)c(Cl)c1
EC50: 6 µM
//
molecule: [N-]=[N+]=N[C@]1(CO)O[C@@H](n2ccc(N)nc2=O)[C@H](O)[C@@H]1O
EC50: > 100 µM
//
molecule: CCOC(=O)c1ccc(OCCC2CCN(c3ccc(C)nn3)CC2)cc1 [Pirodavir (R77975)]
EC50: 10 µM
//
molecule: N=c1ccn(Cc2nc3ccccc3n2-c2ccc(F)cc2)cc1
EC50: 5.3 µM
//
molecule: CC(C)S(=O)(=O)n1c(N)nc2ccc(/C(=N/O)c3ccccc3)cc21
EC50: 0.2 µM

---

# assay protocol: in vitro
# reported conditions: human

molecule: CCOC(=O)/C=C/[C@H](C[C@@H]1CCNC1=O)NC(=O)[C@@H](CC(=O)[C@@H](NC(=O)c1cc(C)on1)C(C)C)Cc1ccc(F)cc1
readout qualifier: >
CC50 / µM: 100
--
molecule: C[C@@]1(O)[C@H](O)[C@@H](CO)O[C@H]1n1cnc2c(N)ncnc21
readout qualifier: =
CC50 / µM: 84
--
molecule: N#Cc1cc([N+](=O)[O-])ccc1Oc1ccc(Cl)c(Cl)c1
readout qualifier: >
CC50 / µM: 100
--
molecule: CCOC(=O)c1ccc(OCCCC2CCN(c3ccc(C)nn3)CC2)cc1 [Pirodavir analog (R78206)]
readout qualifier: =
CC50 / µM: 27
--
molecule: C#CCC(C(=O)NC(C=CC(=O)OCC)CC1CCNC1=O)n1cccc(NC(=O)c2cc(C)on2)c1=O (stereo not shown)
readout qualifier: >
CC50 / µM: 100
--
molecule: CCOC(=O)c1ccc(OCCC2CCN(c3ccc(C)nn3)CC2)cc1 [Pirodavir (R77975)]
readout qualifier: >
CC50 / µM: 100
--
molecule: CC(C)S(=O)(=O)n1c(N)nc2ccc(/C(=N/O)c3ccccc3)cc21
readout qualifier: =
CC50 / µM: 58
